Parameter: DC50. Scope: all listed entries.
- tested target: UniProt Q9UQ88
- particulars: displacement of SNS-032-Atto590 probe (0.002 μM) from CDK11A-p58 (0.032 uM), fluorescence polarization
Where a name gives a salt, the structure may show the parent alone.
readout: DC50 (nM)

O=C(Nc1n[nH]c2ccc(-c3cc(F)ccc3F)cc12)[C@@H]1CCCNC1 [cpd 35, hydrochloride]	35
CNC1CC(C(=O)Nc2n[nH]c3ccc(-c4c(Cl)cccc4Cl)cc23)C1 (centres unmarked) [compound 145, hydrochloride]	44
O=C(Nc1n[nH]c2ccc(-c3cc([N+](=O)[O-])ccc3Cl)cc12)[C@@H]1CCCNC1 [cpd 26, hydrochloride]	23
CN1CCC(C(=O)Nc2n[nH]c3ccc(-c4c(F)cc(O)cc4F)cc23)CC1 [compound 138, trifluoroacetate]	376
NC[C@H]1CC[C@H](C(=O)Nc2n[nH]c3ccc(-c4c(Cl)cccc4Cl)cc23)CC1 [compound 164, hydrochloride]	151
Cc1ccc(F)c(-c2ccc3[nH]nc(NC(=O)C4CCN(C)CC4)c3c2)c1Cl [cpd 73, hydrochloride]	476
N#Cc1ccc(Cl)c(-c2ccc3[nH]nc(NC(=O)[C@H]4CNCCO4)c3c2)c1 [compound 182, hydrochloride]	140
Cc1ccc(Cl)c(-c2ccc3[nH]nc(NC(=O)C4CCN(C)CC4)c3c2)c1F [cpd 72, hydrochloride]	166
N#Cc1ccc(Cl)c(-c2ccc3[nH]nc(NC(=O)[C@H]4CCC5(CCCC5)NC4)c3c2)c1 (single isomer, unassigned) [compound 205, hydrochloride]	278
CN1CCC(C(=O)Nc2n[nH]c3ccc(-c4cc(C#N)ccc4Cl)cc23)CC1 [cpd 116, trifluoroacetate]	63
COc1ccc(-c2ccc3[nH]nc(NC(=O)[C@@H]4CCCNC4)c3c2)c(C(F)(F)F)c1 [cpd 31, hydrochloride]	94
COc1cc(F)c(-c2ccc3[nH]nc(NC(=O)C4CCN(C)CC4)c3c2)c(F)c1 [cpd 120, hydrochloride]	619
CN1CCC(C(=O)Nc2n[nH]c3ccc(-c4cccc(Cl)c4Cl)cc23)CC1 [cpd 97, hydrochloride]	643
COC(=O)c1ccc(Cl)c(-c2ccc3[nH]nc(NC(=O)[C@@H]4CCNC4)c3c2)c1 [cpd 37, hydrochloride]	26

* * *

- tested target: CDK11A (Homo sapiens, UniProt Q9UQ88)
- Sequence (Q9UQ88 346-783): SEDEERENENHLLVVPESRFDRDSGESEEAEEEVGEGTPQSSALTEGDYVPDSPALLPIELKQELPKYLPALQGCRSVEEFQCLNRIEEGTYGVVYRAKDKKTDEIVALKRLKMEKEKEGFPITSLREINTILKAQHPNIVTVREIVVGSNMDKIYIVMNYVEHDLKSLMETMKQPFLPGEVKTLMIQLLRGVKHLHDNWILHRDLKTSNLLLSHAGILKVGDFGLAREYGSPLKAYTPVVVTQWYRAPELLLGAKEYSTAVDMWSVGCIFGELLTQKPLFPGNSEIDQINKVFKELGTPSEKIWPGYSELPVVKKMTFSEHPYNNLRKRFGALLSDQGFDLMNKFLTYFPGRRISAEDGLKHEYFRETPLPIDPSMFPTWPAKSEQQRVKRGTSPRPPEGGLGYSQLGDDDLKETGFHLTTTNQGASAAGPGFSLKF
- particulars: displacement of SNS-032-Atto590 probe (0.002 μM) from CDK11A-p58 (0.032 uM), fluorescence polarization
Where a name gives a salt, the structure may show the parent alone.
Parameter: DC50. Scope: all listed entries.
readout: DC50 (nM)

CN1CCC(C(=O)Nc2n[nH]c3ccc(-c4ccccc4)cc23)CC1 [cpd 93, hydrochloride]	938
CN1CCC(C(=O)Nc2n[nH]c3ccc(-c4cccc(F)c4F)cc23)CC1 [cpd 99, hydrochloride]	173
CNC(=O)c1ccc(C#N)c(-c2ccc3[nH]nc(NC(=O)[C@@H]4CCCNC4)c3c2)c1 [cpd 55, hydrochloride]	90
N#Cc1ccc(Cl)c(-c2ccc3[nH]nc(NC(=O)C4CCNCC4)c3c2)c1 [cpd 61, hydrochloride]	139
N#Cc1ccc(Cl)c(-c2ccc3[nH]nc(NC(=O)C4CCC5(CCCC5)NC4)c3c2)c1 (stereo not shown) [compound 185, hydrochloride]	21
O=C(Nc1n[nH]c2ccc(-c3ccccc3)cc12)[C@@H]1CCCNC1 [cpd 49, hydrochloride]	78
C[C@@H]1CC[C@@H](C(=O)Nc2n[nH]c3ccc(-c4cc(C#N)ccc4Cl)cc23)CN1 [compound 179, trifluoroacetate]	21

* * *

Parameter: DC50. Scope: all listed entries.
- tested target: UniProtKB Q9UQ88
- particulars: displacement of SNS-032-Atto590 probe (0.002 μM) from CDK11A-p58 (0.032 uM), fluorescence polarization
Structures can show the parent of a compound that is named as a salt.
readout: DC50 (µM)

CN1CCC(C(=O)Nc2n[nH]c3ccc(-c4c(F)cccc4Cl)cc23)CC1 [cpd 64, hydrochloride]	0.066
O=C(Nc1n[nH]c2ccc(-c3ccc(Cl)cc3C(F)(F)F)cc12)[C@@H]1CCCNC1 [cpd 45, hydrochloride]	0.088
CN1CCC(C(=O)Nc2n[nH]c3ccc(-c4cc(Cl)ccc4Cl)cc23)CC1 [cpd 80, hydrochloride]	0.216
COCCOc1ccc2[nH]nc(NC(=O)[C@@H]3CCCNC3)c2c1 [cpd 228, hydrochloride]	0.406

* * *

Parameter: DC50. Scope: all listed entries.
- tested target: CDK11A (Homo sapiens, UniProt Q9UQ88)
- Sequence (Q9UQ88 346-783): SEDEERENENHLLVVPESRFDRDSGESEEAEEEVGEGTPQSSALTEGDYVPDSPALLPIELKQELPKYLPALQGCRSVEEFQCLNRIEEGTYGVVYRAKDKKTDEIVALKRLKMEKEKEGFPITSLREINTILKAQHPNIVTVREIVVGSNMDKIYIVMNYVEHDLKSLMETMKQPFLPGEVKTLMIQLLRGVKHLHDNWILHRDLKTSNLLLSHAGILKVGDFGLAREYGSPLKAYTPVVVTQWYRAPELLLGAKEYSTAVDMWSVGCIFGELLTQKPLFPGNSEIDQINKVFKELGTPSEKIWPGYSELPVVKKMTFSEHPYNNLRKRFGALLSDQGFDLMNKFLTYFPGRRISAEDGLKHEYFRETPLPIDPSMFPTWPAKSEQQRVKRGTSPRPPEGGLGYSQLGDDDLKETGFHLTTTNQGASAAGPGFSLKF
- particulars: displacement of SNS-032-Atto590 probe (0.002 μM) from CDK11A-p58 (0.032 uM), fluorescence polarization
Counter-ions that a name gives are not always drawn.
readout: DC50

O=C1CCC(C(=O)Nc2n[nH]c3ccc(-c4c(Cl)cccc4Cl)cc23)CN1 (stereo not shown)	338 nM
CC(=O)c1ccc(F)c(-c2ccc3[nH]nc(NC(=O)C4CCCNC4)c3c2)c1 (stereo not shown) [cpd 16, hydrochloride]	72 nM
CC(=O)c1ccc(Cl)c(-c2ccc3[nH]nc(NC(=O)[C@@H]4CCNC4)c3c2)c1 [cpd 38, hydrochloride]	16 nM
CN1CCC(C(=O)Nc2n[nH]c3ccc(-c4cc([N+](=O)[O-])ccc4Cl)cc23)CC1 [compound 137, trifluoroacetate]	70 nM

* * *

- tested target: CDK11A (Homo sapiens, UniProt Q9UQ88);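 also: compound preincubated 30 min with CDK11A-p58, then probe added and polarization (mP) read 15 min later, 0% displacement is probe plus enzyme, 100% is probe alone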
- particulars: displacement of SNS-032-Atto590 probe (0.002 μM) from CDK11A-p58 (0.032 uM), fluorescence polarization
Structures can show the parent of a compound that is named as a salt.
Parameter: DC50. Scope: all listed entries.
readout: DC50 (nM)

CN1CCC(C(=O)Nc2n[nH]c3ccc(-c4c(F)cc(F)cc4F)cc23)CC1 [compound 123, hydrochloride]	665
N#Cc1ccc(Cl)c(-c2ccc3[nH]nc(NC(=O)[C@@H]4CCCNC4)c3c2)c1 [compound 174, hydrochloride]	23
CC(C)(C)COC(=O)n1nc(NC(=O)[C@@H]2CCC(C)(C)NC2)c2cc(-c3cc(C#N)ccc3Cl)ccc21 (single isomer, unassigned) [cpd 224, hydrochloride]	528

* * *

Parameter: DC50. Scope: all listed entries.
- tested target: UniProt Q9UQ88
- particulars: displacement of SNS-032-Atto590 probe (0.002 μM) from CDK11A-p58 (0.032 uM), fluorescence polarization
Where a name gives a salt, the structure may show the parent alone.
readout: DC50 (nM)

CC(C)NC1CC(C(=O)Nc2n[nH]c3ccc(-c4cc(C#N)ccc4Cl)cc23)C1 (stereo not shown) [compound 148, hydrochloride]	20
CCCCN1CCC(C(=O)Nc2n[nH]c3ccc(-c4cc(C#N)ccc4Cl)cc23)CC1 [compound 140, hydrochloride]	68
O=C(Nc1n[nH]c2ccc(-c3cc(F)ccc3Cl)cc12)[C@@H]1CCCNC1 [cpd 52, hydrochloride]	42
N#Cc1ccc(Cl)c(-c2ccc3[nH]nc(NC(=O)C4CCCNC4)c3c2)c1 (stereo not shown) [compound 171, hydrochloride]	28
Cc1cc(C#N)ccc1-c1ccc2[nH]nc(NC(=O)C3CCN(C)CC3)c2c1 [cpd 113, hydrochloride]	534
CN1CCC(C(=O)Nc2n[nH]c3ccc(-c4ccc(C(N)=O)cc4)cc23)CC1 [cpd 109, hydrochloride]	967
N#Cc1ccc(Cl)c(-c2ccc3[nH]nc(NC(=O)C4CC(NC5CCC5)C4)c3c2)c1 (stereo not shown) [compound 153, hydrochloride]	41

All figures here come from patent US20250206724A1.
